B1: CPEB3 Ribozyme (parent)
chain: UAACAGGGGGCCACAGCAGAAGCGUUCACGUCGCAGCCCCUGUCAGAUUCUGGUGAAUCUGCGAAUUCUGCUGUAUAUCUC

variants of: B1; assay: self-cleavage, relative activity (ratio to wild type); higher = more cleavage; in vitro, sequencing
I would appreciate it if you labelled entries true when self-cleavage is 0.5 or higher, otherwise false.

Example results:
sequence="UAACAGGGGGCCACAGCAGUAGGGUUCACGUCGCAGCCCCUGUCAGAUUCUGGUGAAUCUGCGAAUUCUGCUGUAUAUCUC [A20U C23G]" category_label=false
sequence="UAACAGGGGGCCACAGCAGAAGCGUUCACGUCGCAGCCCCUGUCAGAACCUGGUGAAUCUGCGAAUUCUGCUGUAUAUCUC [U48A U49C]" category_label=false
sequence="UAACAGGGGGCCACAGCAGAAGCGUUCACGUCGCAGCCCCUGUCAGAUUCUGGUUAAUCUGCGAAUUCUGCUGUAUAUCCC [G55U U80C]" category_label=true
sequence="UAACAGGAGGCCACAGCAGAAGCGUUCACGUCGCAGCCCAUGUCAGAUUCUGGUGAAUCUGCGAAUUCUGCUGUAUAUCUC [G8A C40A]" category_label=false
sequence="UAACAGGGGGCCACAGCAGAAGCGUUCACGUAGCAGCCCUUGUCAGAUUCUGGUGAAUCUGCGAAUUCUGCUGUAUAUCUC [C32A C40U]" category_label=false

**Q:** Quick check: does UAACAGGGGGCCACAGGAGAAGCGUUCACGUGGCAGCCCCUGUCAGAUUCUGGUGAAUCUGCGAAUUCUGCUGUAUAUCUC [C17G C32G] have self-cleavage greater than or equal to 0.5?
**A:** false
